- target-entity: 3',5'-cyclic-AMP phosphodiesterase 4D (Homo sapiens, UniProt Q08499)
- Sequence (Q08499 whole entry): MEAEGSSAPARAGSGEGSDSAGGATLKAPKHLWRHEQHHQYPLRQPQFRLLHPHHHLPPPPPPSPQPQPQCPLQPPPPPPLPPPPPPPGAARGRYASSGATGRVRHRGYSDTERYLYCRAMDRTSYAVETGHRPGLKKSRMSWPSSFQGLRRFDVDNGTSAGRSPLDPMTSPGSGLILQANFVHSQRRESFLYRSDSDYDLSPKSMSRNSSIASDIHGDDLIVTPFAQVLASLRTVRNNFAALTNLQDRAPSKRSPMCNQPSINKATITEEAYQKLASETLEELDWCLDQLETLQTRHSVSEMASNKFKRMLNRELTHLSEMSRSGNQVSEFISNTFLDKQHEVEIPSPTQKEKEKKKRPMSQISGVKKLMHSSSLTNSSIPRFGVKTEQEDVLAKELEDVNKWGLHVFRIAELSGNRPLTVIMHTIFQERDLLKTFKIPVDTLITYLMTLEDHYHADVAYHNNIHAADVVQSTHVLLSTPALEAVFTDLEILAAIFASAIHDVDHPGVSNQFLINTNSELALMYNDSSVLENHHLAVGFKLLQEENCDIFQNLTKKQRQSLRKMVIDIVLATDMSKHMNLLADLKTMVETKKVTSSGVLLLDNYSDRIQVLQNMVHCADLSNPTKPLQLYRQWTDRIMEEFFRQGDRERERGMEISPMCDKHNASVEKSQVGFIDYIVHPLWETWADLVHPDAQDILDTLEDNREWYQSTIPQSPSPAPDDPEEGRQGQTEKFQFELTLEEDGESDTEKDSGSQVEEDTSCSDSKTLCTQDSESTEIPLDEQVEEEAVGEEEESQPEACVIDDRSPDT
- protocol-details: Inhibition of cloned human recombinant PDE4D assessed as [3H]cAMP hydrolysis by radiometric assay
pIC50: −log10 of the molar value.
readout: pIC50

a = COc1cc(N2CCCNCC2)ccc1-c1nc2c(C)nn(C3CCCCC3)c(=O)c2[nH]1
b = COc1cc(N)ccc1-c1nc2c(C)nn(C3CCCCC3)c(=O)c2[nH]1
Enquiry: Compare a and b and name the one whose reported pIC50 is smaller. Write down the label of the entry you select.
Return: b

---

- target-entity: UniProt Q13946
- protocol-details: Inhibition of cloned human recombinant PDE7A assessed as [3H]cAMP hydrolysis at 1 uM by radiometric assay
readout: inhibition (%)

Enquiry: What measured inhibition goes with COc1cc(N2CCC(N)CC2)ccc1-c1nc2c(C)nn(C3CCN(C)CC3)c(=O)c2[nH]1 ?
Return: 7

Enquiry: Given COc1cc(N2CCC(N)CC2)ccc1-c1nc2c(C)nn(C3CCCCCC3)c(=O)c2[nH]1 , state its recorded inhibition.
Return: 92

Enquiry: Request the reported inhibition associated with COc1cc(N2CCC(N)CC2)ccc1-c1nc2c(C)nn(C3CCCC3)c(=O)c2[nH]1
Return: 89

a = COc1cc(N2CCC(N)CC2)ccc1-c1nc2c(C)nn(C3CCCCC3)c(=O)c2[nH]1
b = CCCCC(CC)Cn1nc(C)c2nc(-c3ccc(N4CCC(N)CC4)cc3OC)[nH]c2c1=O (stereo unspecified)
c = COc1cc(N2CCC(N)CC2)ccc1-c1nc2c(C)nn(Cc3ccccc3)c(=O)c2[nH]1
Enquiry: Could you please sort these 3 entries by inhibition from high to low? Sort the labels as requested; that list is your answer.
Return: a, c, b

---

- protocol-details: Tmax in C57 mouse at 30 mg/kg, ip
- Type: ADME, organism-based
- Design: dose 30 mg/kg, route intraperitoneal
- experimental-conditions: in vivo
readout: Tmax (min)
Express your answer in min, writing the number without its unit.

Enquiry: # input compound: COc1cc(N)ccc1-c1nc2c(C)nn(C3CCCCC3)c(=O)c2[nH]1 ; wanted: its Tmax
Return: 15

---

- protocol-details: Drug uptake in C57 mouse brain at 100 mg/kg, ip after 30 mins
- Assay type: ADME, organism-based
- Design: dose 100 mg/kg, route intraperitoneal
- experimental-conditions: read-out: Drug uptake
readout: concentration at 0.5 h (ng/g)
Please give a number only; it is taken to be in ng/g.

Enquiry: # input compound: COc1cc(N)ccc1-c1nc2c(C)nn(C3CCCCC3)c(=O)c2[nH]1 ; wanted: its concentration at 0.5 h
Return: 135000

---

- target-entity: High affinity 3',5'-cyclic-AMP phosphodiesterase 7A (Homo sapiens)
- Sequence (Q13946 whole entry): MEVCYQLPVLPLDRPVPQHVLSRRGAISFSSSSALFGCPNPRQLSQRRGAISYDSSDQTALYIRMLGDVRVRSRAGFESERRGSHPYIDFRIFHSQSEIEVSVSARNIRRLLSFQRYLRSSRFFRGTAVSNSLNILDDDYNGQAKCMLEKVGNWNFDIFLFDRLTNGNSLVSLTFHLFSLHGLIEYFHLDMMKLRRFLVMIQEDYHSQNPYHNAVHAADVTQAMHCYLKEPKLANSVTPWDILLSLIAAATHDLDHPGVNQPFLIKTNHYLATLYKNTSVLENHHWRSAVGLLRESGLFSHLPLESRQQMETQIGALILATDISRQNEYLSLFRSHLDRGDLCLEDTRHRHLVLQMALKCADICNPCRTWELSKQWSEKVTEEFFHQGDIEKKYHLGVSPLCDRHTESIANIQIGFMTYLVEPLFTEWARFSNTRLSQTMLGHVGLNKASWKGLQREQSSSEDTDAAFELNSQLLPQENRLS
- protocol-details: Inhibition of cloned human recombinant PDE7A assessed as [3H]cAMP hydrolysis by radiometric assay
readout: IC50 (nM)

Below: 5 compounds and their reported IC50.
Enquiry: # input compound: COc1cc(N2CCCC(O)CC2)ccc1-c1nc2c(C)nn(C3CCCCC3)c(=O)c2[nH]1 (configuration not stated) ; wanted: its IC50
Return: 33

Enquiry: Requested read-out: IC50. Entry: COc1cc(N2CCCN(C(C)=O)CC2)ccc1-c1nc2c(C)nn(C3CCCCC3)c(=O)c2[nH]1
Return: 32

Enquiry: # get_value(readout='IC50', item= COc1cc(N2CCCNCC2)ccc1-c1nc2c(C)nn(C3CCCCC3)c(=O)c2[nH]1 )
Return: 12

Enquiry: What value of measured IC50 is listed for COc1cc(C2CC2C(N)=O)ccc1-c1nc2c(C)nn(C3CCCCC3)c(=O)c2[nH]1 (configuration not stated) ?
Return: 3

Enquiry: Quick check: IC50 of COc1cc(N)ccc1-c1nc2c(C)nn(C3CCCCC3)c(=O)c2[nH]1 ?
Return: 31

1 = CNC(=O)Nc1ccc(-c2nc3c(C)nn(C4CCCCC4)c(=O)c3[nH]2)c(OC)c1
2 = COc1cc(N2CCC(N)CC2)ccc1-c1nc2c(C)nn(C3CCCCCC3)c(=O)c2[nH]1
Enquiry: Smaller IC50 value? Options are 1 and 2 Respond using the label that marks the chosen record.
Return: 1
(1: 24 nM, 2: 75 nM)

All figures here come from ChEMBL document CHEMBL2169851.
